# TARGET SYSTEM: Serine/threonine-protein kinase Nek6 (Homo sapiens)
# Sequence (Q9HC98 whole entry): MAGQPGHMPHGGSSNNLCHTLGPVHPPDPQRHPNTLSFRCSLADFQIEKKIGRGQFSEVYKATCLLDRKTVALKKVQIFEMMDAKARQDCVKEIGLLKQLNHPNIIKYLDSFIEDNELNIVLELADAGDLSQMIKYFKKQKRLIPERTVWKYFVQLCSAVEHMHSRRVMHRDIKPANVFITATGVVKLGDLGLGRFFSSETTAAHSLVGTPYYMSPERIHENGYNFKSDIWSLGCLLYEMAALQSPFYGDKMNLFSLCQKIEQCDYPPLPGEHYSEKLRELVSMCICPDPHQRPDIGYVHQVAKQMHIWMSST
pIC50: −log10 of the molar value.

SMILES REPRESENTATION | pIC50
COc1ncc(F)cc1CNc1ccc(Cc2c[nH]c3ncc(C)cc23)c(F)n1 | < 6.00

---

# TARGET SYSTEM: Phosphatidylinositol 4-kinase beta (Homo sapiens)
# Sequence (Q9UBF8 whole entry): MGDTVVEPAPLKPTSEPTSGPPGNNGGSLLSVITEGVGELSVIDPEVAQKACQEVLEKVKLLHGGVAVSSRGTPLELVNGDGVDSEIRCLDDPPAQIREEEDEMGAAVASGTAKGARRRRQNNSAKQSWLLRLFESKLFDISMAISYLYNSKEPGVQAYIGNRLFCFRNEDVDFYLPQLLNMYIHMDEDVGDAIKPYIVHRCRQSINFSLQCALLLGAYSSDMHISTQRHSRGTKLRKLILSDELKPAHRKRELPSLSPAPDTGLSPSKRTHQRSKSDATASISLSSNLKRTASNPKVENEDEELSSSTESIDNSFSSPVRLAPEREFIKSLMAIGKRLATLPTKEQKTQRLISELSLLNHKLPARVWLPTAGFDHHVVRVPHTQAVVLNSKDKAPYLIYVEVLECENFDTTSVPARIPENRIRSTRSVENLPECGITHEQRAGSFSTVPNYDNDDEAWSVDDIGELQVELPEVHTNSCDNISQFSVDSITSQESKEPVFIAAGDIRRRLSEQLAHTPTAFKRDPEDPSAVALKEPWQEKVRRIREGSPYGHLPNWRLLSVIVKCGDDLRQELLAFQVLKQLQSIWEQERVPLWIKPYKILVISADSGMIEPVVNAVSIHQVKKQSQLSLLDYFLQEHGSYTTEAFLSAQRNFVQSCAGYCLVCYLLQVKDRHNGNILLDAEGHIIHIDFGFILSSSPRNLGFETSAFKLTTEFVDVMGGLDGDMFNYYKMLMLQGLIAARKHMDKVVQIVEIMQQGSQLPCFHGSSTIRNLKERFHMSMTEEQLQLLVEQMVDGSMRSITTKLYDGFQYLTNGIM
# MEASUREMENT DESCRIPTION: Inhibition of PI4KB (unknown origin)
pIC50: −log10 of the molar value.
PARAMETER MEASURED: pIC50

SMILES REPRESENTATION | TARGET SYSTEM | EXPERIMENTAL RESULT
COc1ncc(F)cc1CNc1ccc(Cc2c[nH]c3ncc(C)cc23)c(F)n1 | Phosphatidylinositol 4-kinase beta (Homo sapiens) | < 6.00
